System: C. albicans ATCC 64124
Assay: Antifungal MIC, CLSI M27-A3 microbroth dilution
Type: cell-based, Candida albicans
Settings: Candida albicans, ATCC64124; C. albicans ATCC 64124, resistant to FLC, ITC, and VOR; converted from μg/mL; read-out: MIC
REPORTED PROPERTY: MIC

input: Record C/C(=N\NC(=N)N)c1cccc(/C(C)=N/NC(=N)N)c1.Cl.Cl [Compound 4H, dihydrochloride] : what is its MIC with C. albicans ATCC 64124?
output: > 90.1 µM

input: Record Cl.Cl.N=C(N)N/N=C/c1ccc(-c2ccc(/C=N/NC(=N)N)cc2)cc1 [Compound 3A, dihydrochloride] : what is its MIC with C. albicans ATCC 64124?
output: > 79.2 µM

input: Record C/C(=N\NC(=N)N)c1ccc(CCc2ccc(/C(C)=N/NC(=N)N)cc2)cc1.Cl.Cl [Compound 4D, dihydrochloride] : what is its MIC with C. albicans ATCC 64124?
output: > 69.3 µM

---

Give MIC for every item shown.
Test system: K. pneumoniae ATCC 27736
Test: Antibacterial MIC, double-dilution method
Format: cell-based
Conditions: Klebsiella pneumoniae, ATCC27736; strain H, Gram-negative; converted from μM; read-out: MIC

input: Record Cl.N=C(N)N/N=C/c1ccc(-c2ccc(C=NNc3ccccc3Cl)cc2)cc1 (mixture of isomers) : what is its MIC with K. pneumoniae ATCC 27736?
output: > 215 µg/mL

input: Record Cl.N=C(N)N/N=C/c1ccc(-c2ccc(/C=N/Nc3ccc(Cl)cc3Cl)cc2)cc1 : what is its MIC with K. pneumoniae ATCC 27736?
output: > 231 µg/mL

input: Record C/C(=N\NC(=N)N)c1ccc(-c2ccc(/C(C)=N/NC(=N)N)cc2)cc1.Cl.Cl : what is its MIC with K. pneumoniae ATCC 27736?
output: 6.6 µg/mL

input: Record C/C(=N\NC(=N)N)c1ccc2c(c1)Cc1cc(/C(C)=N/NC(=N)N)ccc1-2.Cl.Cl : what is its MIC with K. pneumoniae ATCC 27736?
output: 13.6 to 27.2 µg/mL

input: Record Cl.N=C(N)N/N=C/c1ccc(-c2ccc(/C=N/Nc3ccc(Cl)cc3)cc2)cc1 : what is its MIC with K. pneumoniae ATCC 27736?
output: > 214 µg/mL

input: Record C/C(=N\NC(=N)N)c1ccc(-c2ccc(/C(C)=N/Nc3ccccc3Cl)cc2)cc1.Cl : what is its MIC with K. pneumoniae ATCC 27736?
output: 26.6 to 53.3 µg/mL

input: Record C/C(=N\NC(=N)N)c1cccc(/C(C)=N/NC(=N)N)c1.Cl.Cl : what is its MIC with K. pneumoniae ATCC 27736?
output: > 173 µg/mL

input: Record C/C(=N\NC(=N)N)c1ccc(Oc2ccc(/C(C)=N/NC(=N)N)cc2)cc1.Cl.Cl : what is its MIC with K. pneumoniae ATCC 27736?
output: 27.5 µg/mL

---

Tested on: C. albicans ATCC 10231
Experiment: Antifungal MIC, CLSI M27-A3 microbroth dilution
Format: cell-based, Candida albicans
Settings: Candida albicans, ATCC10231; C. albicans ATCC 10231, resistant to FLC, ITC, and VOR; read-out: MIC
Protocol: In vitro MIC testing was performed according to the CLSI M27-A3 standard microbroth dilution methodology for the susceptibility testing of yeasts with minor modifications.
REPORTED PROPERTY: MIC (µg/mL)
Just the number in µg/mL, nothing appended.

input: Record Cl.N=C(N)N/N=C/c1ccc(-c2ccc(/C=N/Nc3ccc(Cl)cc3Cl)cc2)cc1 [Compound 7Ag] : what is its MIC with C. albicans ATCC 10231?
output: 7.8

input: Record Cl.N#Cc1ccc(N/N=C/c2ccc(-c3ccc(/C=N/NC(=N)N)cc3)cc2)cc1 [Compound 7Ae] : what is its MIC with C. albicans ATCC 10231?
output: 15.6

input: Record C/C(=N\NC(=N)N)c1ccc(Cc2ccc(/C(C)=N/NC(=N)N)cc2)cc1.Cl.Cl [Compound 4C] : what is its MIC with C. albicans ATCC 10231?
output: 7.8

input: Record C/C(=N\NC(=N)N)c1ccc(Oc2ccc(/C(C)=N/NC(=N)N)cc2)cc1.Cl.Cl [Compound 4E] : what is its MIC with C. albicans ATCC 10231?
output: 7.8

input: Record Cl.N=C(N)N/N=C/c1ccc(-c2ccc(/C=N/Nc3ccc(Cl)cc3)cc2)cc1 [Compound 7Ad] : what is its MIC with C. albicans ATCC 10231?
output: 7.8

input: Record Cl.N=C(N)N/N=C/c1ccc(-c2ccc(/C=N/Nc3ccc(F)cc3F)cc2)cc1 [Compound 7Af] : what is its MIC with C. albicans ATCC 10231?
output: 1

input: Record C/C(=N\NC(=N)N)c1ccc(-c2ccc(/C(C)=N/Nc3ccccc3Cl)cc2)cc1.Cl [Compound 8Aa] : what is its MIC with C. albicans ATCC 10231?
output: 15.6

input: Record Cl.Cl.N=C(N)N/N=C/c1ccc(-c2ccc(/C=N/NC(=N)N)cc2)cc1 [Compound 3A] : what is its MIC with C. albicans ATCC 10231?
output: 15.6

input: Record Cl.N=C(N)N/N=C/c1ccc(-c2ccc(/C=N/Nc3ccccc3Br)cc2)cc1 [Compound 7Ab] : what is its MIC with C. albicans ATCC 10231?
output: 2

input: Record C/C(=N\NC(=N)N)c1ccc(CCc2ccc(/C(C)=N/NC(=N)N)cc2)cc1.Cl.Cl [Compound 4D] : what is its MIC with C. albicans ATCC 10231?
output: 7.8

The reported numbers originate from patent US10173968B2.
